# TARGET_UNDER_TEST: SAE (Homo sapiens, UniProt Q9UBT2)
# Construct: endogenous in cells; host or cells: HCT116
# Sequence (Q9UBT2 whole entry): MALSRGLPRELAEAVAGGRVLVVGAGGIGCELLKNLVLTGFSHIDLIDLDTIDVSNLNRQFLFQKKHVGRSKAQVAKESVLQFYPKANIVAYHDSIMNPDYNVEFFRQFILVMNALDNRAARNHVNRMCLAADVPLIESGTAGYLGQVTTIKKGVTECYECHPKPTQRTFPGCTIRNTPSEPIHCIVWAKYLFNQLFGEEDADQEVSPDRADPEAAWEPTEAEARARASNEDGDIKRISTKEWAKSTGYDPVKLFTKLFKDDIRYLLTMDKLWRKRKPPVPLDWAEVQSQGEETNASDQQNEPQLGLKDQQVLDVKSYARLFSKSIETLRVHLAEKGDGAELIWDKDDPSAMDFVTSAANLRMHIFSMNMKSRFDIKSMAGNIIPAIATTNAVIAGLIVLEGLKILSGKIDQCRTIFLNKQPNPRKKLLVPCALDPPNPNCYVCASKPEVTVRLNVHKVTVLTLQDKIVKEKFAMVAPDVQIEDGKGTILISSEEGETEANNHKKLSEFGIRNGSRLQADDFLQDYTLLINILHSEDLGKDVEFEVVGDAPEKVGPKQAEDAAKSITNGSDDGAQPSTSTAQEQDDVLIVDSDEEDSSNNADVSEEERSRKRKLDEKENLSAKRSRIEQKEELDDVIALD
# Sequence (Q9UBE0 whole entry, further chain): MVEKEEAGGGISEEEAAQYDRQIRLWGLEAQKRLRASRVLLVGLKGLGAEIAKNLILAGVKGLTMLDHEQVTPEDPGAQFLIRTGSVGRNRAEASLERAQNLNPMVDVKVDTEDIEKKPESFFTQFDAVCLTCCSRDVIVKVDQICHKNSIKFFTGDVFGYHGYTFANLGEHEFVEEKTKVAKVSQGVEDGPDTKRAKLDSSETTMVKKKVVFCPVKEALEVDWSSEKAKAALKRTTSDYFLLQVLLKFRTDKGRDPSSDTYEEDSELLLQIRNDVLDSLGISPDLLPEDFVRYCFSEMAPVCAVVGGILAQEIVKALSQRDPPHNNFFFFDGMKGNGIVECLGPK
# ASSAY_PROTOCOL: SUMO IF: in vitro inhibitory activity assay against SAE in HCT116 cells (SUMO-2/3 immunofluorescence)
# Format: cell-based
# EXPERIMENTAL_CONDITIONS: class symbols, 6 h at 37° C.
pIC50: −log10 of the molar value.
EXPERIMENTAL_ENDPOINT: pIC50

Qu. Item CC1=C[C@@]2(NCCc3ccc(F)cc32)c2cc(C(=O)c3cncnc3N[C@H]3C[C@H](O)[C@@H](COS(N)(=O)=O)[C@@H]3F)sc21 has what recorded pIC50?
Ans. < 6.70

Qu. Record: NS(=O)(=O)OC[C@H]1[C@H](F)[C@@H](Nc2ncncc2C(=O)c2cc3c(s2)CSC[C@]32NCCc3ccc(Cl)nc32)C[C@@H]1O
Ans. ≥ 7.30

Qu. Record: NS(=O)(=O)OC[C@H]1[C@H](F)[C@@H](Nc2ncncc2C(=O)c2cc3c(s2)CCC32NCCc3cc(Cl)c(F)cc32)C[C@@H]1O (stereo partly drawn)
Ans. 6.70 to 7.30

Qu. Record: NS(=O)(=O)OC[C@H]1[C@H](F)[C@@H](Nc2ncncc2C(=O)c2cc3c(s2)CCC32NCCc3cc(F)c(Cl)cc32)C[C@@H]1O (stereo partly drawn)
Ans. ≥ 7.30

Qu. Record: CC1(C)Cc2ccc(Cl)cc2[C@@]2(CCCc3sc(C(=O)c4cncnc4N[C@H]4C[C@H](O)[C@@H](COS(N)(=O)=O)[C@@H]4F)cc32)N1
Ans. 6.70 to 7.30

Qu. Record: CCN1Cc2sc(C(=O)c3cncnc3N[C@H]3C[C@H](O)[C@@H](COS(N)(=O)=O)[C@@H]3F)cc2C2(C1)NCCc1ccc(Cl)cc12 (stereo partly drawn)
Ans. ≥ 7.30

###

# TARGET_UNDER_TEST: SAE (Homo sapiens, UniProt Q9UBT2)
# Construct: endogenous in cells; host or cells: HCT116
# ASSAY_PROTOCOL: SUMO IF: in vitro inhibitory activity assay against SAE in HCT116 cells (SUMO-2/3 immunofluorescence)
# Format: cell-based
# EXPERIMENTAL_CONDITIONS: class symbols, 6 h at 37° C.
pIC50: −log10 of the molar value.
Would you mind telling me the reported pIC50 of each entry?

Qu. Item NS(=O)(=O)OC[C@H]1[C@H](F)[C@@H](Nc2ncncc2C(=O)c2nc3c(s2)COCC32NCCc3ccc(Cl)cc32)C[C@@H]1O (some centres unmarked) has what recorded pIC50?
Ans. < 6.70

Qu. Record: CC1Cc2ccc(Cl)cc2C2(CCCc3sc(C(=O)c4cncnc4N[C@H]4C[C@H](O)[C@@H](COS(N)(=O)=O)[C@@H]4F)cc32)N1 (some centres unmarked)
Ans. 6.70 to 7.30

Qu. Record: NS(=O)(=O)OC[C@H]1[C@H](F)[C@@H](Nc2ncncc2C(=O)c2cc3c(s2)C=CC32NCCc3ccc(F)cc32)C[C@@H]1O (some centres unmarked)
Ans. 6.70 to 7.30

Qu. Record: NS(=O)(=O)OC[C@H]1[C@H](F)[C@@H](Nc2ncncc2C(=O)c2cc3c(s2)CCC32NCCc3ccc(C4CC4)cc32)C[C@@H]1O (some centres unmarked)
Ans. 6.70 to 7.30

Qu. Record: N#Cc1ccc2c(c1)[C@@]1(CCc3sc(C(=O)c4cncnc4N[C@H]4C[C@H](O)[C@@H](COS(N)(=O)=O)[C@@H]4F)cc31)NCC2
Ans. 6.70 to 7.30

Qu. Record: NS(=O)(=O)OC[C@H]1[C@H](F)[C@@H](Nc2ncncc2C(=O)c2cc3c(s2)COCC32NCCc3ccc(F)cc32)C[C@@H]1O (some centres unmarked)
Ans. 6.70 to 7.30

Qu. Record: NS(=O)(=O)OC[C@H]1[C@H](F)[C@@H](Nc2ncncc2C(=O)c2cc3c(s2)COCC32NCCc3cc(F)c(Cl)cc32)C[C@@H]1O (some centres unmarked)
Ans. 6.70 to 7.30

Qu. Record: COc1sc(C(=O)c2cncnc2N[C@H]2C[C@H](O)[C@@H](COS(N)(=O)=O)[C@@H]2F)cc1C1NCCc2ccc(Cl)cc21 (some centres unmarked)
Ans. 6.70 to 7.30

Qu. Record: NS(=O)(=O)OC[C@H]1[C@H](F)[C@@H](Nc2ncncc2C(=O)c2cc3c(s2)OC[C@]32NCCc3ccc(F)cc32)C[C@@H]1O
Ans. 6.70 to 7.30

Qu. Record: CN1Cc2sc(C(=O)c3cncnc3N[C@H]3C[C@H](O)[C@@H](COS(N)(=O)=O)[C@@H]3F)cc2[C@@]2(C1)OCCc1ccc(Cl)cc12
Ans. < 6.70

Qu. Record: N#Cc1ccc2c(c1)C1(C=Cc3sc(C(=O)c4cncnc4N[C@H]4C[C@H](O)[C@@H](COS(N)(=O)=O)[C@@H]4F)cc31)OCC2 (some centres unmarked)
Ans. 6.70 to 7.30

Qu. Record: NS(=O)(=O)OC[C@H]1[C@H](F)[C@@H](Nc2ncncc2C(=O)c2cc3c(s2)CCC[C@]32NCCc3ncc(Cl)cc32)C[C@@H]1O
Ans. ≥ 7.30

Qu. Record: CC1CNC2(CCCc3sc(C(=O)c4cncnc4N[C@H]4C[C@H](O)[C@@H](COS(N)(=O)=O)[C@@H]4F)cc32)c2cc(Cl)ccc21 (some centres unmarked)
Ans. 6.70 to 7.30

Qu. Record: N#Cc1ccc2c(c1)C1(CCc3sc(C(=O)c4cncnc4N[C@H]4C[C@H](O)[C@@H](COS(N)(=O)=O)[C@@H]4F)cc31)NCC2 (some centres unmarked)
Ans. 6.70 to 7.30

Qu. Record: CC1(C)CNC2(CCCc3sc(C(=O)c4cncnc4N[C@H]4C[C@H](O)[C@@H](COS(N)(=O)=O)[C@@H]4F)cc32)c2cc(Cl)ccc21 (some centres unmarked)
Ans. 6.70 to 7.30

Qu. Record: NS(=O)(=O)OC[C@H]1[C@H](F)[C@@H](Nc2ncncc2C(=O)c2cc3c(s2)CCC32NCCc3cc(F)c(F)cc32)C[C@@H]1O (some centres unmarked)
Ans. 6.70 to 7.30

Qu. Record: NS(=O)(=O)OC[C@H]1[C@H](F)[C@@H](Nc2ncncc2C(=O)c2cc3c(s2)CCC32OCCc3ccccc32)C[C@@H]1O (some centres unmarked)
Ans. < 6.70

Qu. Record: CC1Cc2ccc(Cl)cc2[C@]2(C=Cc3sc(C(=O)c4cncnc4N[C@H]4C[C@H](O)[C@@H](COS(N)(=O)=O)[C@@H]4F)cc32)N1 (some centres unmarked)
Ans. < 6.70

Qu. Record: NS(=O)(=O)OC[C@H]1[C@H](F)[C@@H](Nc2ncncc2C(=O)c2cc3c(s2)CC[C@]32NCCc3ccc(C4CC4)cc32)C[C@@H]1O
Ans. 6.70 to 7.30

Qu. Record: NS(=O)(=O)OC[C@H]1[C@H](F)[C@@H](Nc2ncncc2C(=O)c2cc3c(s2)CCC[C@]32NCCc3cc(F)c(Cl)cc32)C[C@@H]1O
Ans. ≥ 7.30

Qu. Record: NS(=O)(=O)OC[C@H]1[C@H](F)[C@@H](Nc2ncncc2C(=O)c2nc3c(s2)CSCC32NCCc3ccc(Cl)cc32)C[C@@H]1O (some centres unmarked)
Ans. < 6.70

Qu. Record: NS(=O)(=O)OC[C@H]1[C@H](F)[C@@H](Nc2ncncc2C(=O)c2cc3c(s2)CCC[C@]32NCCc3ccc(Cl)nc32)C[C@@H]1O
Ans. ≥ 7.30

Qu. Record: NS(=O)(=O)OC[C@H]1[C@H](F)[C@@H](Nc2ncncc2C(=O)c2nc3c(s2)COC[C@@]32NCCc3ccc(Cl)cc32)C[C@@H]1O
Ans. < 6.70

###

# TARGET_UNDER_TEST: SAE (Homo sapiens)
# Construct: endogenous in cells; host or cells: HCT116
# ASSAY_PROTOCOL: SUMO IF: in vitro inhibitory activity assay against SAE in HCT116 cells (SUMO-2/3 immunofluorescence)
# Format: cell-based
# EXPERIMENTAL_CONDITIONS: class symbols, 6 h at 37° C.
pIC50: −log10 of the molar value.
EXPERIMENTAL_ENDPOINT: pIC50

Qu. Item NS(=O)(=O)OC[C@H]1[C@H](F)[C@@H](Nc2ncncc2C(=O)c2cc3c(s2)CSCC32NCCc3cnc(Cl)cc32)C[C@@H]1O (some centres unmarked) [Compound 606] has what recorded pIC50?
Ans. 6.70 to 7.30

Qu. Record: NS(=O)(=O)OC[C@H]1[C@H](F)[C@@H](Nc2ncncc2C(=O)c2cc3c(s2)C=C[C@@]32OCCc3ccc(Cl)cc32)C[C@@H]1O [Compound 760]
Ans. < 6.70

Qu. Record: NS(=O)(=O)OC[C@H]1[C@H](F)[C@@H](Nc2ncncc2C(=O)c2cc3c(s2)COCC32NCCc3cc(Cl)c(Cl)cc32)C[C@@H]1O (some centres unmarked) [Compound 561]
Ans. 6.70 to 7.30

Qu. Record: NS(=O)(=O)OC[C@H]1[C@H](F)[C@@H](Nc2ncncc2C(=O)c2cc3c(s2)C=CC[C@]32NCCc3ccc(Cl)cc32)C[C@@H]1O [Compound 680]
Ans. ≥ 7.30

Qu. Record: NS(=O)(=O)OC[C@H]1[C@H](F)[C@@H](Nc2ncncc2C(=O)c2cc3c(s2)CCC[C@]32OCCc3ccc(Cl)cc32)C[C@@H]1O [Compound 686]
Ans. ≥ 7.30

Qu. Record: NS(=O)(=O)OC[C@H]1[C@H](F)[C@@H](Nc2ncncc2C(=O)c2nc3c(s2)CSC[C@]32NCCc3ccc(Cl)cc32)C[C@@H]1O [Compound 593]
Ans. 6.70 to 7.30

Qu. Record: C#Cc1ccc2c(c1)[C@@]1(CCCc3sc(C(=O)c4cncnc4N[C@H]4C[C@H](O)[C@@H](COS(N)(=O)=O)[C@@H]4F)cc31)NCC2 [Compound 668]
Ans. 6.70 to 7.30

Qu. Record: NS(=O)(=O)OC[C@H]1[C@H](F)[C@@H](Nc2ncncc2C(=O)c2cc3c(s2)OCC32NCCc3ccc(Cl)cc32)C[C@@H]1O (some centres unmarked) [Compound 145]
Ans. 6.70 to 7.30

Qu. Record: NS(=O)(=O)OC[C@H]1[C@H](F)[C@@H](Nc2ncncc2C(=O)c2cc3c(s2)CCCC32NCCc3ccc(C(F)(F)F)cc32)C[C@@H]1O (some centres unmarked) [Compound 109]
Ans. 6.70 to 7.30

Qu. Record: NS(=O)(=O)OC[C@H]1[C@H](F)[C@@H](Nc2ncncc2C(=O)c2cc3c(s2)C=CC32OCCc3ccc(F)cc32)C[C@@H]1O (some centres unmarked) [Compound 756]
Ans. 6.70 to 7.30

Qu. Record: NS(=O)(=O)OC[C@H]1[C@H](F)[C@@H](Nc2ncncc2C(=O)c2cc3c(s2)COC[C@@]32NCCc3c(F)cc(Cl)cc32)C[C@@H]1O [Compound 574]
Ans. < 6.70

Qu. Record: NS(=O)(=O)OC[C@H]1[C@H](F)[C@@H](Nc2ncncc2C(=O)c2cc3c(s2)CC[C@]32NCCc3cc(Cl)ncc32)C[C@@H]1O [Compound 700]
Ans. 6.70 to 7.30

Qu. Record: NS(=O)(=O)OC[C@H]1[C@H](F)[C@@H](Nc2ncncc2C(=O)c2cc3c(s2)CCC[C@]32NCCc3ccc(C4CC4)cc32)C[C@@H]1O [Compound 667]
Ans. 6.70 to 7.30

Qu. Record: NS(=O)(=O)OC[C@H]1[C@H](F)[C@@H](Nc2ncncc2C(=O)c2cc3c(s2)CCCC32NC(=O)Cc3ccc(Cl)cc32)C[C@@H]1O (some centres unmarked) [Compound 627]
Ans. < 6.70

Qu. Record: NS(=O)(=O)OC[C@H]1[C@H](F)[C@@H](Nc2ncncc2C(=O)c2cc3c(s2)C=C[C@]32OCCc3ccccc32)C[C@@H]1O [Compound 755]
Ans. 6.70 to 7.30

Qu. Record: NS(=O)(=O)OC[C@H]1[C@H](F)[C@@H](Nc2ncncc2C(=O)c2cc3c(s2)COC[C@@]32NCCc3ccc(Cl)c(F)c32)C[C@@H]1O [Compound 568]
Ans. < 6.70

Qu. Record: CN1CCc2ccc(Cl)cc2[C@@]12CCCc1sc(C(=O)c3cncnc3N[C@H]3C[C@H](O)[C@@H](COS(N)(=O)=O)[C@@H]3F)cc12 [Compound 596]
Ans. 6.70 to 7.30

Qu. Record: NS(=O)(=O)OC[C@H]1[C@H](F)[C@@H](Nc2ncncc2C(=O)c2cc3c(s2)C(F)=C[C@]32NCCc3ccc(F)cc32)C[C@@H]1O [Compound 620]
Ans. 6.70 to 7.30

Qu. Record: NS(=O)(=O)OC[C@H]1[C@H](F)[C@@H](Nc2ncncc2C(=O)c2cc3c(s2)C=CC32NCCc3ccc(Cl)cc32)C[C@@H]1O (some centres unmarked) [Compound 162]
Ans. ≥ 7.30

Qu. Record: COc1ccc2c(c1)[C@@]1(CCCc3sc(C(=O)c4cncnc4N[C@H]4C[C@H](O)[C@@H](COS(N)(=O)=O)[C@@H]4F)cc31)NCC2 [Compound 644]
Ans. < 6.70

Qu. Record: [2H]C1([2H])Cc2ccc(Cl)cc2[C@@]2(C=Cc3sc(C(=O)c4cncnc4N[C@H]4C[C@H](O)[C@@H](COS(N)(=O)=O)[C@@H]4F)cc32)N1 [Compound 701]
Ans. ≥ 7.30

Qu. Record: NS(=O)(=O)OC[C@H]1[C@H](F)[C@@H](Nc2ncncc2C(=O)c2cc3c(s2)CC[C@]32NCCc3ccc(C(F)(F)F)cc32)C[C@@H]1O [Compound 690]
Ans. 6.70 to 7.30

Qu. Record: NS(=O)(=O)OC[C@H]1[C@H](F)[C@@H](Nc2ncncc2C(=O)c2cc3c(s2)CCC[C@]32NCCc3cc(Cl)c(Cl)cc32)C[C@@H]1O [Compound 672]
Ans. ≥ 7.30
